System: NCI-H719 tumor spheroids, viability
Assay: Anticancer human tumor NCI-H719 cell line growth inhibition;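 note: spheroids exposed to compounds for seven days; percent viability relative to DMSO vehicle control as 100%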
Details: second compound 100 µM; first compound 0.949 µM; hits give low values; spheroids with HUVEC and MSC
endpoint.label: viability, T/C (%)

• CNCc1ccc(-c2cc(-c3nc(-c4ccc(S(=O)(=O)C(C)C)cc4)cnc3N)on2)cc1 + Cn1nnc2c(C(N)=O)ncn2c1=O = 39.1
• O=C(c1cc(Cc2n[nH]c(=O)c3ccccc23)ccc1F)N1CCN(C(=O)C2CC2)CC1 + Cn1nnc2c(C(N)=O)ncn2c1=O = 29.4
• Cn1ncnc1[C@H]1c2n[nH]c(=O)c3cc(F)cc(c23)N[C@@H]1c1ccc(F)cc1 + Cn1nnc2c(C(N)=O)ncn2c1=O = 7.7
• Cc1sc2c(c1C)C(c1ccc(Cl)cc1)=NC(CC(=O)Nc1ccc(O)cc1)c1nnc(C)n1-2 (centres undefined) + Cn1nnc2c(C(N)=O)ncn2c1=O = 3.72
